experiment: TOX21_p53_BLA_p4_viability: Viability Assessment in the Tox21 HCT-116 p53 Agonism Beta-lactamase Assay, Phase 4 (AID 2283597);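 further: hits lower the luminescence signal meaning cytotoxicity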
Inconclusive results are not listed. Activity calls are given as the source filed them. How the source made its calls: active means hit-call score of the fitted dose curve at least 0.9, where 1 is the maximum; inconclusive means response in the unintended direction; inactive means score below 0.9.
Reply using exactly one outcome from active, inactive

Completed entries (count: 5):
> print(dat)
                                   molecule  discrete.label
1                                  CCOCCOCC        inactive
2  CCCCCCCCCC=CCC1CC(=O)OC1=O (stereo not drawn)        inactive
3                     O=C(c1ccccc1)c1ccccc1        inactive
4                                    CCCC=O        inactive
5                    CCCCCCCCCCCCCCCC(=O)OC        inactive

Asked: Please state the recorded outcome for this molecule: `Cc1cc(=O)oc2cc(O)ccc12`
Given back: inactive

Asked: Please state the recorded outcome for this molecule: CCCCCC(C)OC(=O)COc1ccc(Cl)c2cccnc12 (stereo not drawn)
Given back: inactive

Asked: Please state the recorded outcome for this molecule: `O=C(Nc1cccc([N+](=O)[O-])c1)c1cc2ccccc2cc1O`
Given back: active
